Assay: Intrinsic aqueous solubility incubated for 72 hrs by LC-MS based shake-flask method
Format: physicochemical
Settings: buffer

- STRUCTURE SMILES STRING: "Cc1ccc(Cn2cc(CCC(=O)Nc3ccc(CCCCc4nnc(NC(=O)Cc5ccccn5)s4)nn3)nn2)cc1"
  solubility thermodynamic at 72 h: "20.8 µg/mL"

---

Molecular target: Glutaminase kidney isoform, mitochondrial (Homo sapiens)
Sequence (O94925 whole entry): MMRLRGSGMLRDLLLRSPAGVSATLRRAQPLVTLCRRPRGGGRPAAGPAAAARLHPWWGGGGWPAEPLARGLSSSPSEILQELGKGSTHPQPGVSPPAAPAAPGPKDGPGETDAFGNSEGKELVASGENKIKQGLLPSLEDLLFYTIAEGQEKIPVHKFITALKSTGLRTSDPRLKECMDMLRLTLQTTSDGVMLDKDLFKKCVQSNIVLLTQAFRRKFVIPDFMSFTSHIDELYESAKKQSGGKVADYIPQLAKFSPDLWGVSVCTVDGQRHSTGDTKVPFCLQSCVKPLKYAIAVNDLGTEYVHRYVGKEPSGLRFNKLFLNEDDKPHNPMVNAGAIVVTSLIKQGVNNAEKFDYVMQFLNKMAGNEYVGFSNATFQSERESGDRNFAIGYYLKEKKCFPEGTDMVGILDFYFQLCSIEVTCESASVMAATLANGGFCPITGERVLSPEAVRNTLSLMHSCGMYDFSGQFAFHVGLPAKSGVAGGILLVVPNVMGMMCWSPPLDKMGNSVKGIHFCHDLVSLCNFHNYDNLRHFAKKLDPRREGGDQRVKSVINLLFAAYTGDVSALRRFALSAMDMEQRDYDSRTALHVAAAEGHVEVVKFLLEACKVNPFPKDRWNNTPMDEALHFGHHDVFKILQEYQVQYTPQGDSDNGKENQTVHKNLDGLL
Assay: Inhibition of N-[2-[(3',6'-dihydroxy-1-oxo-spiro[isobenzofuran-3,9'-xanthene]-5-yl)carbamothioylamino]ethyl]-N'-[6-[4-[5-[[2-(2-pyridyl)acetyl]amino]-1,3,4-thiadiazol-2-yl]butyl]pyridazin-3-yl]pentanediamide binding to human GLS1 expressed in Escherichia coli strain BL21 (DE3)pLysS by fluorescence polarization binding assay
ENDPOINT NAME: IC50 (nM)

- STRUCTURE SMILES STRING: "Cc1ccc(Cn2cc(CCC(=O)Nc3nnc(CCCCc4nnc(NC(=O)Cc5ccccc5)s4)s3)nn2)c(C)c1"
  UNIT SYMBOL: "nM"
  OBS VALUE: 500
- STRUCTURE SMILES STRING: "O=C(CCc1cn(Cc2ccc(Br)cc2)nn1)Nc1nnc(CCCCc2nnc(NC(=O)Cc3ccccc3)s2)s1"
  UNIT SYMBOL: "nM"
  OBS VALUE: 1080
- STRUCTURE SMILES STRING: "O=C(CCc1cn(Cc2ccc(OC(F)(F)F)cc2)nn1)Nc1ccc(CCCCc2nnc(NC(=O)Cc3ccccn3)s2)nn1"
  UNIT SYMBOL: "nM"
  OBS VALUE: 390
- STRUCTURE SMILES STRING: "Cc1ccc(Cn2cc(CCC(=O)Nc3nnc(CCCCc4nnc(NC(=O)Cc5ccccc5)s4)s3)nn2)cc1"
  UNIT SYMBOL: "nM"
  OBS VALUE: 560
- STRUCTURE SMILES STRING: "O=C(CCc1cn(Cc2ccc(C(F)(F)F)cc2)nn1)Nc1ccc(CCCCc2nnc(NC(=O)Cc3ccccn3)s2)nn1"
  UNIT SYMBOL: "nM"
  OBS VALUE: 73
- STRUCTURE SMILES STRING: "Cc1cccc(C)c1Cn1cc(CCC(=O)Nc2ccc(CCCCc3nnc(NC(=O)Cc4ccccn4)s3)nn2)nn1"
  UNIT SYMBOL: "nM"
  OBS VALUE: 460
- STRUCTURE SMILES STRING: "O=C(CCc1cn(Cc2ccccc2)nn1)Nc1nnc(CCCCc2nnc(NC(=O)Cc3ccccc3)s2)s1"
  UNIT SYMBOL: "nM"
  OBS VALUE: 920
- STRUCTURE SMILES STRING: "O=C(CCc1cn(Cc2ccc(Cl)cc2)nn1)Nc1nnc(CCCCc2nnc(NC(=O)Cc3ccccc3)s2)s1"
  UNIT SYMBOL: "nM"
  OBS VALUE: 1370
- STRUCTURE SMILES STRING: "COc1ccc(Cn2cc(CCC(=O)Nc3ccc(CCCCc4nnc(NC(=O)Cc5ccccn5)s4)nn3)nn2)cc1OC"
  UNIT SYMBOL: "nM"
  OBS VALUE: 400
- STRUCTURE SMILES STRING: "Cc1ccc(Cn2cc(CCC(=O)Nc3ccc(CCCCc4nnc(NC(=O)Cc5ccccn5)s4)nn3)nn2)cc1"
  UNIT SYMBOL: "nM"
  OBS VALUE: 41
